I'd appreciate it if you could supply Efficacy values for the items below.
Test system: Alternaria solani
run-description: In vivo preventive test on Alternaria solani (tomato)
test-settings: 500 ppm of active ingredient, evaluated 7 days after inoculation
Numbers only, in %.

Recorded Efficacy, per entry:
Cn1nc(C(F)F)c(C(=O)N(C2CC2)C2CCCCC2(C)c2ccccc2)c1F (mixture of isomers): 70
CN(C[Si](C)(C)c1ccccc1)C(=O)c1c(C(F)F)nn(C)c1F: 100
Cn1nc(C(F)F)c(C(=O)N(CCc2ccccc2)C2CC2)c1Cl: 100
CC(CNC(=O)c1c(C(F)F)nn(C)c1F)c1ccc(C(F)(F)F)cc1 (centres unmarked): 100
Cn1nc(C(F)F)c(C(=O)N(CC(F)(F)c2ccc(Cl)cc2Cl)C2CC2)c1F: 100

Parameters: items (list). Returns: Efficacy for each item.
1. Cn1nc(C(F)F)c(C(=O)NC[Si](C)(C)c2ccccc2)c1Cl
2. CN(CCc1ccc(C(C)(C)C)cc1)C(=O)c1c(C(F)F)nn(C)c1Cl
3. CC(CNC(=O)c1c(C(F)F)nn(C)c1Cl)c1ccc(C(F)(F)F)cc1 (centres unmarked)
4. Cn1nc(C(F)F)c(C(=O)NCC(C)(C)c2ccc(Oc3ccccc3)cc2)c1Cl
5. Cn1nc(C(F)F)c(C(=O)NC(C)(C)Cc2ccc(Oc3ccccc3)cc2)c1Cl
6. Cn1nc(C(F)F)c(C(=O)NCCc2cc(Cl)ccc2Cl)c1Cl
7. Cc1cc(C)c(CCN(C)C(=O)c2c(C(F)F)nn(C)c2Cl)c(C)c1

1. 95
2. 90
3. 100
4. 80
5. 95
6. 95
7. 90

Parameters: items (list). Returns: Efficacy for each item.
1. CC(CN(C(=S)c1c(C(F)F)nn(C)c1Cl)C1CC1)c1ccccc1 (centres unmarked)
2. CC(CNC(=O)c1c(C(F)F)nn(C)c1F)c1cccc(Cl)c1 (centres unmarked)
3. COC(c1cc(Cl)cc(Cl)c1)C(C)NC(=O)c1c(C(F)F)nn(C)c1Cl (mixture of isomers)
4. CC(Cc1cc(Cl)ccc1Cl)NC(=O)c1c(C(F)F)nn(C)c1F (centres unmarked)

1. 95
2. 100
3. 90
4. 100

Recorded Efficacy of Cn1nc(C(F)F)c(C(=O)N(C2CC2)C2CCCC2c2ccc(Cl)cc2Cl)c1F (centres unmarked) , please.
100

----------
System: Fusarium graminearum
run-description: microbe, parasite or virus in culture
Assay type: cell-based
test-settings: 50 μM
readout-name: % Inhibition of fungal growth at 50 μM (%)
Answers are plain numbers, in %.

Recorded % Inhibition of fungal growth at 50 μM, per entry:
Cn1nc(C(F)F)c(C(=O)NCC(C)(C)c2cc(Cl)ccc2Cl)c1Cl [Example 101]: 86
CN(CCc1cc(Cl)ccc1Cl)C(=O)c1c(C(F)F)nn(C)c1Cl [Example 95]: 100
Cc1cccnc1CC(NC(=O)c1c(C(F)F)nn(C)c1F)C(F)(F)F (stereo not drawn) [Example 185]: 87
CN(CCc1ccccc1C(F)(F)F)C(=O)c1c(C(F)F)nn(C)c1Cl [Example 124]: 87
CC(Cc1cccc(Cl)c1)NC(=O)c1c(C(F)F)nn(C)c1F (stereo not drawn) [Example 50]: 100
CC(c1ccccc1Cl)C(C)N(C(=O)c1c(C(F)F)nn(C)c1Cl)C1CC1 (stereo not drawn) [Example 42]: 84
CN(CC(=O)c1ccc(Cl)cc1)C(=O)c1c(C(F)F)nn(C)c1F [Example 61]: 84
Cc1c(CCNC(=O)c2c(C(F)F)nn(C)c2Cl)sc2ccccc12 [Example 172]: 85

Okay, now this molecule:
Form field: % Inhibition of fungal growth at 50 μM recorded for Cn1nc(C(F)F)c(C(=O)NCCc2c(Cl)cccc2Cl)c1Cl [Example 118] with Fusarium graminearum (enter value)
81

----------
run-description: logP by HPLC on reversed-phase column (C 18), EEC Directive 79/831 Annex V.A8
Type: physicochemical
Class 1 (yes): logP at least 2. Class 0 (no): logP below 2.

Cn1nc(C(F)F)c(C(=O)N(CCc2ccccc2)CC(F)(F)F)c1Cl [Example 10]: 1 (yes)
Cn1nc(C(F)F)c(C(=O)NCCc2ccc(Cl)nc2)c1F [Example 197]: 0 (no)
CC(C)N(CCc1ccncc1)C(=O)c1c(C(F)F)nn(C)c1F [Example 198]: 0 (no)
CN(CCc1ccc(F)cc1)C(=O)c1c(C(F)F)nn(C)c1Cl [Example 24]: 1 (yes)

Is logP for Cn1nc(C(F)F)c(C(=O)N(CCC#N)CCc2ccccc2)c1F [Example 3] at or above 2?
1 (yes)

----------
Test system: Fusarium nivale (var. majus)
run-description: In vivo curative test on Fusarium nivale (wheat)
test-settings: 500 ppm of active ingredient, evaluated 5 days after inoculation
readout-name: Efficacy
Be sure to follow the number with its unit.

Recorded Efficacy, per entry:
Cn1nc(C(F)F)c(C(=O)N(CCc2ccccc2)C2CC2)c1F: 100%
CCOC(c1ccc(Cl)cc1Cl)C(C)NC(=O)c1c(C(F)F)nn(C)c1F (mixture of isomers): 100%
CCC(NC(=O)c1c(C(F)F)nn(C)c1Cl)C(OC)c1ccc(Cl)cc1Cl (mixture of isomers): 86%
CC(Cc1ccc(Cl)cc1Cl)NC(=S)c1c(C(F)F)nn(C)c1F (centres unmarked): 92%

Recorded Efficacy of CCOC(c1ccc(Cl)cc1Cl)C(C)NC(=O)c1c(C(F)F)nn(C)c1Cl (mixture of isomers) , please.
100%

----------
Test system: Alternaria solani
run-description: In vivo preventive test on Alternaria solani (tomato)
test-settings: 500 ppm of active ingredient, evaluated 7 days after inoculation
readout-name: Efficacy (%)
One number for each entry, in %.

CC(Cc1ccccc1Cl)NC(=S)c1c(C(F)F)nn(C)c1F (stereo not drawn): 94
Cn1nc(C(F)F)c(C(=O)NCC(C)(C)c2cccc(Cl)c2)c1F: 70
Cn1nc(C(F)F)c(C(=O)NCCc2ccccc2Cl)c1F: 95
Cn1nc(C(F)F)c(C(=O)NCC(c2cccs2)C(F)(F)F)c1F (stereo not drawn): 95
Cn1nc(C(F)F)c(C(=O)NC[Si](C)(C)c2ccc(Cl)cc2Cl)c1F: 100

Parameters: items (list). Returns: Efficacy for each item.
1. Cn1nc(C(F)F)c(C(=S)NCCc2ccc(Cl)cc2Cl)c1F
2. CC(CNC(=O)c1c(C(F)F)nn(C)c1Cl)c1ccccc1Cl (stereo not drawn)
3. CC(Cc1ncc(C(F)(F)F)cc1Cl)N(C(=O)c1c(C(F)F)nn(C)c1F)C1CC1 (stereo not drawn)
4. CC(Cc1ncc(C(F)(F)F)cc1Cl)N(C(=O)c1c(C(F)F)nn(C)c1Cl)C1CC1 (stereo not drawn)
5. CN(CCc1cc(Cl)ccc1Cl)C(=S)c1c(C(F)F)nn(C)c1F

1. 94
2. 100
3. 100
4. 100
5. 95

Parameters: items (list). Returns: Efficacy for each item.
1. Cn1nc(C(F)F)c(C(=O)NC(C)(C)C(=O)c2ncc(C(F)(F)F)cc2Cl)c1F
2. Cn1nc(C(F)F)c(C(=O)NCC(C)(C)c2ccc(Cl)cc2)c1F
3. CC(Cc1ccc(Oc2ccccc2)cc1)NC(=S)c1c(C(F)F)nn(C)c1F (stereo not drawn)
4. Cn1nc(C(F)F)c(C(=O)NC[Si](C)(C)c2cc(Cl)cc(Cl)c2)c1F
5. Cn1nc(C(F)F)c(C(=O)NCC(C)(C)c2ccccc2Cl)c1Cl
6. CN(CCc1ccccc1C(F)(F)F)C(=O)c1c(C(F)F)nn(C)c1F

100
90
89
100
70
100

Parameters: items (list). Returns: Efficacy for each item.
1. COC(CN(C(=O)c1c(C(F)F)nn(C)c1F)C1CC1)c1ccc(Cl)cc1Cl (stereo not drawn)
2. CC(CNC(=O)c1c(C(F)F)nn(C)c1F)c1cc(Cl)ccc1Cl (stereo not drawn)

95
95

----------
I'd appreciate it if you could supply Efficacy values for the items below.
Test system: Alternaria solani
run-description: In vivo preventive test on Alternaria solani (tomato)
test-settings: 500 ppm of active ingredient, evaluated 7 days after inoculation
One number for each entry, in %.

CCC(NC(=O)c1c(C(F)F)nn(C)c1Cl)C(OC)c1ccc(Cl)cc1Cl (mixture of isomers) [Example 76]: 95
CC(Cc1c(F)cccc1Cl)N(C(=O)c1c(C(F)F)nn(C)c1Cl)C1CC1 (stereo not drawn) [Example 119]: 100
Cn1nc(C(F)F)c(C(=O)N(C[Si](C)(C)c2ccsc2)C2CC2)c1F [Example 248]: 94
Cn1nc(C(F)F)c(C(=O)NCC(C)(C)c2cc(Cl)ccc2Cl)c1F [Example 100]: 95

Parameters: items (list). Returns: Efficacy for each item.
1. CC(Cc1cc(Cl)cc(Cl)c1)NC(=O)c1c(C(F)F)nn(C)c1Cl (stereo not drawn) [Example 104]
2. CC(Cc1ccccc1Cl)NC(=O)c1c(C(F)F)nn(C)c1Cl (stereo not drawn) [Example 33]
3. Cn1nc(C(F)F)c(C(=O)NCCc2cccc(Oc3ccccc3)c2)c1F [Example 143]
4. CCOC(c1ccc(Cl)cc1Cl)C(C)NC(=O)c1c(C(F)F)nn(C)c1Cl (mixture of isomers) [Example 82]
5. CC(C)C(CNC(=O)c1c(C(F)F)nn(C)c1Cl)c1ccc(Cl)cc1 (stereo not drawn) [Example 59]

1: 95; 2: 100; 3: 95; 4: 95; 5: 100
